# measurement.target: UniProt:P40224
# Sequence (P40224 22-93): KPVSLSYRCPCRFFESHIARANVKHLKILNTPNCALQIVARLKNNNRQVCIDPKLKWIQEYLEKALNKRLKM
property.measured: pKd
Hey, just a heads up that pKd is the negative log base 10 of the concentration in molar.

[ask] Which pKd is reported for this compound? COc1ccc(C(=O)/C=C/c2ccc(OCc3ccc(CNC(=O)C4CCN(C(=O)C5CCCCN5Cc5cc(Cl)c(OCc6cccc(-c7ccccc7)c6C)cc5OCc5cccc(C#N)c5)CC4)cc3)c(OC)c2)cc1 (stereo not shown)
[reply] 7.12

====

# assay.summary: Pharmacokinetic study in male SD rats
# Type: in vivo, rat
# condition.set: rat, plasma, po, P.O. 18 mg/kg, mean ± SD, read-out: MRT(0–t)
property.measured: MRT last (h)
A number alone suffices; assume h.

[ask] Which MRT last is reported for this molecule? COc1ccc(C(=O)/C=C/c2ccc(OCc3ccc(CNC(=O)C4CCN(C(=O)C5CCCCN5Cc5cc(Cl)c(OCc6cccc(-c7ccccc7)c6C)cc5OCc5cccc(C#N)c5)CC4)cc3)c(OC)c2)cc1 (stereo not shown) [CP21]
[reply] 5.9

====

# assay.summary: Pharmacokinetic study in male SD rats
# Type: in vivo, rat
# condition.set: rat, plasma, iv, I.V. 1 mg/kg, mean ± SD, read-out: MRT(0–∞)
property.measured: MRT inf (h)
A number alone suffices; assume h.

[ask] Which MRT inf is reported for this molecule? COc1ccc(C(=O)/C=C/c2ccc(OCc3ccc(CNC(=O)C4CCN(C(=O)C5CCCCN5Cc5cc(Cl)c(OCc6cccc(-c7ccccc7)c6C)cc5OCc5cccc(C#N)c5)CC4)cc3)c(OC)c2)cc1 (stereo not shown) [CP21]
[reply] 14

====

# assay.summary: Pharmacokinetic study in male SD rats
# Assay type: in vivo, rat
# condition.set: rat, plasma, iv, I.V. 1 mg/kg, mean ± SD
property.measured: half-life (h)
A number alone suffices; assume h.

[ask] Which half-life is reported for this molecule? COc1ccc(C(=O)/C=C/c2ccc(OCc3ccc(CNC(=O)C4CCN(C(=O)C5CCCCN5Cc5cc(Cl)c(OCc6cccc(-c7ccccc7)c6C)cc5OCc5cccc(C#N)c5)CC4)cc3)c(OC)c2)cc1 (stereo not shown)
[reply] 12.4

====

# assay.summary: Pharmacokinetic study in male SD rats
# Format: in vivo, rat
# condition.set: rat, plasma, iv, I.V. 1 mg/kg
property.measured: Tmax (min)
A number alone suffices; assume min.

[ask] Which Tmax is reported for this compound? COc1ccc(C(=O)/C=C/c2ccc(OCc3ccc(CNC(=O)C4CCN(C(=O)C5CCCCN5Cc5cc(Cl)c(OCc6cccc(-c7ccccc7)c6C)cc5OCc5cccc(C#N)c5)CC4)cc3)c(OC)c2)cc1 (stereo not shown)
[reply] 4.98

====

# assay.summary: Pharmacokinetic study in male SD rats
# Format: in vivo, rat
# condition.set: rat, plasma, iv, I.V. 1 mg/kg, mean ± SD, read-out: Vz
property.measured: Vd (L/kg)
A number alone suffices; assume L/kg.

[ask] Which Vd is reported for this compound? COc1ccc(C(=O)/C=C/c2ccc(OCc3ccc(CNC(=O)C4CCN(C(=O)C5CCCCN5Cc5cc(Cl)c(OCc6cccc(-c7ccccc7)c6C)cc5OCc5cccc(C#N)c5)CC4)cc3)c(OC)c2)cc1 (stereo not shown)
[reply] 8.4

====

property.measured: pKd
Hey, just a heads up that pKd is the negative log base 10 of the concentration in molar.

[ask] Form field: pKd recorded for COc1ccc(C(=O)/C=C/c2ccc(OCc3ccc(CNC(=O)C4CCN(C(=O)C5CCCCN5Cc5cc(Cl)c(OCc6cccc(-c7ccccc7)c6C)cc5OCc5cccc(C#N)c5)CC4)cc3)c(OC)c2)cc1 (stereo not shown) with human CXCL12 (Homo sapiens, UniProt P48061) (enter value)
Sequence (P48061 22-93): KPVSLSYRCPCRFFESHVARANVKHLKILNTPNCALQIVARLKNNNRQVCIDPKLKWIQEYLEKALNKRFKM
[reply] 6.80

====

# assay.summary: Pharmacokinetic study in male SD rats
# Assay type: in vivo, rat
# condition.set: rat, plasma, iv, I.V. 1 mg/kg, mean ± SD
property.measured: AUC(0-inf) (ng·h/mL)
A number alone suffices; assume ng·h/mL.

[ask] Which AUC(0-inf) is reported for this compound? COc1ccc(C(=O)/C=C/c2ccc(OCc3ccc(CNC(=O)C4CCN(C(=O)C5CCCCN5Cc5cc(Cl)c(OCc6cccc(-c7ccccc7)c6C)cc5OCc5cccc(C#N)c5)CC4)cc3)c(OC)c2)cc1 (stereo not shown) [CP21]
[reply] 2140

====

So I've got a bunch of compounds here, and I need their IC50 values.
# measurement.target: PD-1/PD-L1 interaction (Homo sapiens)
# assay.summary: PD-1/PD-L1 HTRF assay
# condition.set: read-out: IC50, anti-PD-1/PD-L1 potency

[ask] Which IC50 is reported for this compound? CCOC(=O)COc1cc(OCc2cccc(-c3ccccc3)c2C)c(Cl)cc1CN1CCCCC1C(=O)NCCC(=O)NCc1ccc(COc2ccc(/C=C/C(=O)c3ccc(OC)cc3)cc2OC)cc1 (stereo not drawn)
[reply] > 1000 nM

[ask] Which IC50 is reported for this compound? COc1ccc(C(=O)/C=C/c2ccc(OCc3ccc(CNC(=O)C4CCCCN4Cc4ccc(OCc5cccc(-c6ccccc6)c5C)c(Br)c4)cc3)c(OC)c2)cc1 (stereo not drawn)
[reply] > 1000 nM

[ask] Which IC50 is reported for this compound? "COc1ccc(C(=O)/C=C/c2ccc(OCc3ccc(CNC(=O)CCCNC(=O)C(C)(C)NCc4cc(Cl)c(OCc5cccc(-c6ccccc6)c5C)cc4OCc4cccc(C#N)c4)cc3)c(OC)c2)cc1"
[reply] 101 nM

====

# assay.summary: Pharmacokinetic study in male SD rats
# Assay type: in vivo, rat
# condition.set: rat, plasma, iv, I.V. 1 mg/kg, mean ± SD
property.measured: clearance (L/h/kg)
A number alone suffices; assume L/h/kg.

[ask] Which clearance is reported for this molecule? COc1ccc(C(=O)/C=C/c2ccc(OCc3ccc(CNC(=O)C4CCN(C(=O)C5CCCCN5Cc5cc(Cl)c(OCc6cccc(-c7ccccc7)c6C)cc5OCc5cccc(C#N)c5)CC4)cc3)c(OC)c2)cc1 (stereo not shown)
[reply] 0.5

====

# assay.summary: Pharmacokinetic study in male SD rats
# Format: in vivo, rat
# condition.set: rat, plasma, po, P.O. 18 mg/kg, mean ± SD
property.measured: AUC(0-inf)

[ask] Which AUC(0-inf) is reported for this molecule? COc1ccc(C(=O)/C=C/c2ccc(OCc3ccc(CNC(=O)C4CCN(C(=O)C5CCCCN5Cc5cc(Cl)c(OCc6cccc(-c7ccccc7)c6C)cc5OCc5cccc(C#N)c5)CC4)cc3)c(OC)c2)cc1 (stereo not shown)
[reply] 128 ng·h/mL

====

# measurement.target: PD-1/PD-L1 interaction (Homo sapiens, UniProt Q9NZQ7)
# Sequence (Q9NZQ7 19-238 limits assumed): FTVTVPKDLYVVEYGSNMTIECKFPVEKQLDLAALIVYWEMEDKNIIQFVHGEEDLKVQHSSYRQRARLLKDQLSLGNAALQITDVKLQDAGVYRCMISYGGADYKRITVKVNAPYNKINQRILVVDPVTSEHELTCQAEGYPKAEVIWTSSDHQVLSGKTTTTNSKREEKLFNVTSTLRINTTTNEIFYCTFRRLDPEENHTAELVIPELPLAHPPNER
# assay.summary: PD-1/PD-L1 HTRF assay
# condition.set: read-out: IC50, anti-PD-1/PD-L1 potency
So I've got a bunch of compounds here, and I need their IC50 values.
A number alone suffices; assume nM.

[ask] Which IC50 is reported for this compound? COc1ccc(C(=O)/C=C/c2ccc(OCc3ccc(CNC(=O)CCNC(=O)C4CCCCN4Cc4cc(Cl)c(OCc5cccc(-c6ccccc6)c5C)cc4OCc4cccc(C#N)c4)cc3)c(OC)c2)cc1 (stereo not shown)
[reply] 88.5

[ask] Which IC50 is reported for this compound? COc1ccc(C(=O)/C=C/c2ccc(OCc3ccc(CNC(=O)CCCNC(=O)C4CCCCN4Cc4cc(Cl)c(OCc5cccc(-c6ccccc6)c5C)cc4OCc4cccc(C#N)c4)cc3)c(OC)c2)cc1 (stereo not shown)
[reply] 107

[ask] Which IC50 is reported for this compound? "COc1ccc(C(=O)/C=C/c2ccc(OCc3ccc(CNC(=O)CCNC(=O)C(C)(C)NCc4cc(Cl)c(OCc5cccc(-c6ccccc6)c5C)cc4OCc4cccc(C#N)c4)cc3)c(OC)c2)cc1"
[reply] 870

====

# assay.summary: Pharmacokinetic study in male SD rats
# Type: in vivo, rat
# condition.set: rat, plasma, iv, I.V. 1 mg/kg, mean ± SD
property.measured: AUC(0-t) (ng·h/mL)
A number alone suffices; assume ng·h/mL.

[ask] Which AUC(0-t) is reported for this molecule? COc1ccc(C(=O)/C=C/c2ccc(OCc3ccc(CNC(=O)C4CCN(C(=O)C5CCCCN5Cc5cc(Cl)c(OCc6cccc(-c7ccccc7)c6C)cc5OCc5cccc(C#N)c5)CC4)cc3)c(OC)c2)cc1 (stereo not shown) [CP21]
[reply] 2030
